# Target desc: IMPα2 lacking the IBB domain (residues 70-529) (UniProt P52293 70-529)
# Experimental protocol: FP
Where no end group is shown, it is not given here.
Measurement kind: pKd
Formally, pKd is defined as -log10 of the concentration c, with c in mol/L.

Qu. Quick check: pKd of RKARKRSHSPTKKLRYVKRRF (also: FITC-tagged) [FITC-tagged MERS-CoV ORF4b NLS peptide (residues 19-39), wild type] ?
Ans. 7.95
